Reported fold change (FC) is given for each of the following molecules.
experiment: Induction of anti-CD3/CD28 antibodies-stimulated human T cell activation at 0.3 uM assessed fold increase in IL-2 secretion measured by ELISA assay; type: functional, T cell line
Lab note: jot the number down without any unit.

smiles_repr=C[C@H](Cc1nncn1C)c1cccc(NC(=O)c2cc3cccn3cn2)c1 parameter_measured="fold change (FC)" readout_number=1.01
smiles_repr=Cn1cnnc1CC1(c2cccc(N3Cc4c(cc(C(F)(F)CO)cc4C(F)(F)F)C3=O)c2)COC1 parameter_measured="fold change (FC)" readout_number=1.01
smiles_repr=Cc1ccc(C(=O)Nc2cccc([C@H](C)Sc3nncn3C)c2)nc1C1CC1 parameter_measured="fold change (FC)" readout_number=1.01
smiles_repr=Cc1n[nH]c(C)c1-c1cc2c(c(C(F)(F)F)c1)CN(c1cccc([C@H](C)Cc3nncn3C)c1)C2=O parameter_measured="fold change (FC)" readout_number=2.51

We next turn to a different molecule, shown below.
So what's the measured fold change (FC) for this one? Cn1cnnc1[C@@H]1C[C@@H]1c1cccc(N2Cc3c(cc(CN4CC[C@H](F)C4)cc3C(F)(F)F)C2=O)c1
2.51
